Data credit: paper PMC11871066

# MEASURED_ON: T1, recombinant FAK FAT protein (fluorescence polarisation assay) (human)
# T1 construct: focal adhesion kinase (FAK), focal adhesion targeting (FAT) domain
# PROCEDURE_DETAILS: fluorescence polarisation; competition: FAT 25 µM, TAMRA-LD2 L10D probe 0.1 µM, peptide titrated from 1.25 mM, 3 h; 20 mM Tris-Cl pH 8.0, 200 mM NaCl, 0.05% β-mercaptoethanol, 0.1% Triton-X 100, 5% glycerol; Ki calculated from IC50
# MEASUREMENT_CONDITIONS: both partners purified
Bridge positions count the residues as written; N and C are the ends. Square brackets hold non-standard residues; d marks the D form. R8 = C=CCCCCCC[C@@](C)(N)C(=O)O; S5 = C=CCCC[C@](C)(N)C(=O)O
Ki reference
Form entry: value (µM) — number only.

Ac-NL[R8]ELDRLW[S5]ELN-NH2 (staple 3-10) [stapled peptide 2007] : 190
Ac-NL[R8]EWDRLL[S5]EWN-NH2 (staple 3-10) [stapled peptide 1933] : 281
Ac-N[R8]SELDRL[S5]LELN-NH2 (staple 2-9) [stapled peptide 2017] : 80.6
Ac-NL[R8]ALDRLL[S5]ELN-NH2 (staple 3-10) [stapled peptide 2009] : 26.7
Ac-DL[R8]ELDRLL[S5]ELD-NH2 (staple 3-10) [stapled peptide 1913] : 21.8

*Q* Record request: Ki value, item Ac-NL[R8]ALDALL[S5]ELN-NH2 (staple 3-10) [stapled peptide 2010]
*A* 68.5
